// data source = patent US20230192890A1

List of absorbance 490 nm/630 nm values.
- assay target: T1, Ala mutant SEQ ID NO: 34 (human)
- T1 peptide: EENMDDQAMQDEMEIGY
- assay name: ELISA, peptide on plate (10 ug/mL)
Be sure to follow the number with its unit.

Record excerpt, results attached:
[
  {
    "binder": "A11 (antibody, IgG1, V domains shown, Chicken variable regions in mouse chimeric antibody (IgG1) expression vectors; also called anti-PAD4 antibody A11; A11 etc) VH: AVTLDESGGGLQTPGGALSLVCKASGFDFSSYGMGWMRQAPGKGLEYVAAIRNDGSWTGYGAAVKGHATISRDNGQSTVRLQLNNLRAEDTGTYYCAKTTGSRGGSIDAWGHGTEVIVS VL: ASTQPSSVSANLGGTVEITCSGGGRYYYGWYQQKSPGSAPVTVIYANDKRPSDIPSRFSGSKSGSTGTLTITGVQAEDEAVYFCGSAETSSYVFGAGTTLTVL",
    "result": "0.021 OD"
  },
  {
    "binder": "G9 (antibody, IgG1, V domains shown, Chicken variable regions in mouse chimeric antibody (IgG1) expression vectors; also called anti-PAD4 antibody G9; A11 etc) VH: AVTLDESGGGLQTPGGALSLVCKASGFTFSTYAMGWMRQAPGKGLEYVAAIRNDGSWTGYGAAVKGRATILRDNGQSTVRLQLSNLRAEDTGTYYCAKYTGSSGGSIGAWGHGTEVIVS VL: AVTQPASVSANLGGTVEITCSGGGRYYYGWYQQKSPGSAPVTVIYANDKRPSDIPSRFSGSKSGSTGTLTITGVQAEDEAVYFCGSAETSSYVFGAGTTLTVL",
    "result": "0.038 OD"
  }
]

Now look at this one.
Qu. Give the measured absorbance 490 nm/630 nm for G6 (antibody, IgG1, V domains shown, Chicken variable regions in mouse chimeric antibody (IgG1) expression vectors; also called anti-PAD4 antibody G6; A11 etc) VH: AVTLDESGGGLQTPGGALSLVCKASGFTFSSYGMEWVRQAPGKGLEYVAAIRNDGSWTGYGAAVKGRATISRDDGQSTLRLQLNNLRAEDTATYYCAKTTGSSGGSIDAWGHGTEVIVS VL: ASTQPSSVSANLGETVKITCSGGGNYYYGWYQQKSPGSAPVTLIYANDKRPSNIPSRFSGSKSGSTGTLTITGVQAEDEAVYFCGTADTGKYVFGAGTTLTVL
Ans. 0.042 OD
